System: MCF-10A
Experiment: normalised response (% of control), CellTiter-Glo; higher = more viable cells (100 = DMSO, 0 = benzethonium chloride kill control)
Conditions: incubation time: 72 h
Experimental readout: normalised response (%)

| Compound | Target | Experimental readout | Measured |
| --- | --- | --- | --- |
| CC(C)(C)c1cc(NC(=O)Nc2ccc(-c3cn4c(n3)sc3cc(OCCN5CCOCC5)ccc34)cc2)no1 [Quizartinib] (1000 nM) | MCF-10A | normalised response | 109 |
| CCCC(CCC)C(=O)O [Valproic acid] (1000000 nM) | MCF-10A | normalised response | 94.6 |
| CCS(=O)(=O)c1cccc(-c2cc(C(=O)NC3CCN(C)CC3)c(C)c3[nH]c4ncc(C)cc4c23)c1 [TAK-901] (1000 nM) | MCF-10A | normalised response | 25.4 |
| C[C@@H]1C=C2C(=O)O[C@@H]3CC[C@H](C1)[C@]23O [Galiellalactone] (50000 nM) | MCF-10A | normalised response | 106 |
| CN(c1ccccc1CNc1nc(Nc2ccc3c(c2)CC(=O)N3)ncc1C(F)(F)F)S(C)(=O)=O (10000 nM) | MCF-10A | normalised response | 9.01 |
| C[C@@H]1CCN(C(=O)CC#N)C[C@@H]1N(C)c1ncnc2[nH]ccc12 [Tofacitinib] (5000 nM) | MCF-10A | normalised response | 97.2 |
| Cn1cnc2c(F)c(Nc3ccc(Br)cc3F)c(C(=O)NOCCO)cc21 [MEK-162] (1000 nM) | MCF-10A | normalised response | 38.9 |
| CCOc1cc2ncc(C#N)c(Nc3ccc(OCc4ccccn4)c(Cl)c3)c2cc1NC(=O)/C=C/CN(C)C [Neratinib] (1000 nM) | MCF-10A | normalised response | 25.4 |
| C#Cc1cccc(Nc2ncnc3cc(OC)c(OCCCCCCC(=O)NO)cc23)c1 [CUDC-101] (10000 nM) | MCF-10A | normalised response | 8.27 |
| COC1=CC(c2cc3ccccc3[nH]2)=N/C1=C\c1[nH]c(C)cc1C [Obatoclax] (10000 nM) | MCF-10A | normalised response | 95.8 |
| COc1c(C)cnc(Cn2cnc3c(Cl)nc(N)nc32)c1C [BIIB021] (10000 nM) | MCF-10A | normalised response | 13.4 |

* * *

Each entry below carries its recorded normalised response.
System: MDA-MB-436
Assay: normalised response (% of control), CellTox Green; higher = less cell death (100 = DMSO, 0 = benzethonium chloride kill control)
Details: incubation time: 72 h

| Compound | normalised response (%) |
| --- | --- |
| C[C@@H]1C=C2C(=O)O[C@@H]3CC[C@H](C1)[C@]23O [Galiellalactone] (5000 nM) | 96.5 |
| CC(=O)O[C@H]1C(=O)[C@@]2(C)[C@H]([C@H](OC(=O)c3ccccc3)[C@]3(O)C[C@H](OC(=O)[C@H](O)[C@@H](NC(=O)c4ccccc4)c4ccccc4)C(C)=C1C3(C)C)[C@]1(OC(C)=O)CO[C@@H]1C[C@@H]2O [Paclitaxel] (10 nM) | -40.2 |
| CCCC(CCC)C(=O)O [Valproic acid] (10000 nM) | 117 |
| C[C@@H]1CCN(C(=O)CC#N)C[C@@H]1N(C)c1ncnc2[nH]ccc12 [Tofacitinib] (50 nM) | 97.8 |
| COc1ncc(-c2ccc3nccc(-c4ccnnc4)c3c2)cc1NS(=O)(=O)c1ccc(F)cc1F (1000 nM) | 104 |
| COc1cc(Nc2ncc(F)c(Nc3ccc4c(n3)NC(=O)C(C)(C)O4)n2)cc(OC)c1OC [Tamatinib] (10000 nM) | 94.9 |
